Reference source: patent US11708369B2

Catalogue of compounds with associated CC50 at 3 days
EXPERIMENTAL_PROTOCOL: in vitro
SETUP_CONDITIONS: human
RECORDED_ENDPOINT: CC50 at 3 days (µM)

>>> print(df.to_string())
                                    compound  recorded_endpoint  value_relation_sign   val
 0  CCc1cc(C(=O)N2CCc3ccccc3[C@H]2C)cc2cc(-c3ccc([C@H]4C[C@@H]4C(N)=O)cc3F)cn12 [Compound 2]     CC50 at 3 days                    =  52.7
 1  CCc1cc(C(=O)N2CCc3ccccc3[C@H]2C)c(OC)c2cc(-c3ccc(C4C[C@H]4C(=O)O)cc3F)nn12 (relative stereo) [Compound 5]     CC50 at 3 days                    =  47.2
 2  C[C@@H]1c2ccccc2CCN1C(=O)c1cc(C2CC2)n2nc(-c3ccc(C4C[C@H]4C(=O)O)cc3F)nc2c1 (relative stereo) [Compound 16]     CC50 at 3 days                    =  79.4
 3  C[C@@H]1c2ccccc2CCN1C(=O)c1cc(C2CC2)n2cc(-c3ccc(N4CC[C@H](C(N)=O)C4)cc3F)nc2n1 [Compound 28]     CC50 at 3 days                    =  22.3
 4  C[C@@H]1c2ccccc2CCN1C(=O)c1cc(C2CC2)n2nc(-c3ccc(N4CC[C@H](C(N)=O)C4)cc3F)cc2c1F [Compound 10]     CC50 at 3 days                    =  40.4
 5  C[C@@H]1c2ccccc2CCN1C(=O)c1cc(C2CC2)n2cc(-c3ccc(C4C[C@H]4C(=O)O)cc3F)nc2n1 (relative stereo) [Compound 24]     CC50 at 3 days                    =  69.7
 6  C[C@@H]1c2ccccc2CCN1C(=O)c1cc(C2CC2)n2nc(-c3ccc(N4CC[C@H](C(N)=O)C4)cc3F)nc2c1 [Compound 20]     CC50 at 3 days                    =  45.6
 7  C[C@@H]1c2ccccc2CCN1C(=O)c1cc2cc(-c3ccc(N4CC[C@H](C(=O)O)C4)cc3F)nn2c(C2CC2)n1 [Compound 21]     CC50 at 3 days                    =  29.8
 8  CCc1cc(C(=O)N2CCc3ccccc3[C@H]2C)cc2cc(-c3ccc(C4C[C@H]4C(=O)O)cc3F)nn12 (relative stereo) [Compound 4]     CC50 at 3 days                    =  57.6
 9  C[C@@H]1c2ccccc2CCN1C(=O)c1cc(C2CC2)n2nc(-c3ccc(N4CC[C@H](C(=O)O)C4)cc3F)cc2c1 [Compound 7]     CC50 at 3 days                    =    48
10  C[C@@H]1c2ccccc2CCN1C(=O)c1cc2cc(-c3ccc(N4CC[C@H](C(N)=O)C4)cc3F)nn2c(C2CC2)n1 [Compound 22]     CC50 at 3 days                    >   100
11  C[C@@H]1c2ccccc2CCN1C(=O)c1cc(C2CC2)n2nc(-c3ccc(N4CC[C@H](C(=O)O)C4)cc3F)nc2c1 [Compound 19]     CC50 at 3 days                    =  60.9
12  C[C@@H]1c2ccccc2CCN1C(=O)c1cc(C2CC2)n2nc(-c3ccc(C4C[C@H]4C(N)=O)cc3F)nc2c1 (relative stereo) [Compound 18]     CC50 at 3 days                    =  47.9
